Readings of MIC for the listed compounds
# Test system: Escherichia coli ATCC 11 775
# assay explanation: Serial dilution test in the microtiter system (MIC), E. Coli ATCC 11775
# Format: cell-based
# test settings: Table IV, E. Coli ATCC 11775, 37° C., 18-20 hours, read-out: MIC
Please state the figure in µg/mL; there is no need to write the unit.

Cn1nnnc1SCC1=C(C(=O)O)N2C(=O)[C@@H](NC(=O)[C@H](NC(=O)Nc3cnc(NCc4cccs4)nc3O)c3ccc(O)cc3)[C@H]2SC1; 0.25
Cc1ncc(CNc2ncc(NC(=O)N[C@@H](C(=O)N[C@@H]3C(=O)N4C(C(=O)O)=C(CSc5nnnn5C)CS[C@H]34)c3ccc(O)cc3)c(O)n2)cn1; 0.12
Cn1nnnc1SCC1=C(C(=O)O)N2C(=O)[C@@H](NC(=O)[C@H](NC(=O)Nc3cnc(Nc4ccc([S+](C)[O-])nc4)nc3O)c3ccc(O)cc3)[C@H]2SC1 (stereo partly drawn); 0.25
Cn1nnnc1SCC1=C(C(=O)O)N2C(=O)[C@@H](NC(=O)[C@H](NC(=O)Nc3cnc(NCc4ccco4)nc3O)c3ccc(O)cc3)[C@H]2SC1; 0.25

Name the reported MIC value associated with the compound "CC(=O)OCC1=C(C(=O)O)N2C(=O)[C@@H](NC(=O)[C@H](NC(=O)Nc3cnc(NCc4ccco4)nc3O)c3ccc(O)cc3)[C@H]2SC1" 0.5

Request the reported MIC associated with CO/N=C(\C(=O)N[C@@H]1C(=O)N2C(C(=O)O)=C(COC(N)=O)CS[C@H]12)c1ccco1 [Cefuroxim, reference compound] 8

---

MIC overview
# System: Proteus mirabilis Hamburgensis
# assay explanation: Serial dilution test in the microtiter system (MIC), Prot. mirabilis
# Assay type: cell-based
# test settings: Table IV, Prot. mir. Hbg., 37° C., 18-20 hours, read-out: MIC
Your answer should be a plain number; it is taken to be in µg/mL.

Cn1nnnc1SCC1=C(C(=O)O)N2C(=O)[C@@H](NC(=O)C(NC(=O)Nc3cnc(NCc4ccco4)nc3O)c3cccs3)[C@H]2SC1 (single isomer, unassigned); 0.12
CO/N=C(\C(=O)N[C@@H]1C(=O)N2C(C(=O)O)=C(COC(N)=O)CS[C@H]12)c1ccco1 [Cefuroxim, reference compound]; 0.5

Query compound follows.
Name the reported MIC value associated with the compound Cn1nnnc1SCC1=C(C(=O)O)N2C(=O)[C@@H](NC(=O)[C@H](NC(=O)Nc3cnc(Nc4ccc([S+](C)[O-])nc4)nc3O)c3ccc(O)cc3)[C@H]2SC1 (stereo partly shown) 0.12

---

# Test system: Proteus rettgeri
# assay explanation: Serial dilution test in the microtiter system (MIC), Prot. rettgeri
# Format: cell-based
# test settings: Providencia rettgeri; Table IV; Prot. rettg.; 37° C., 18-20 hours; read-out: MIC
metric name: MIC
Provide the measurement as a number trailed by its unit.

Cn1nnnc1SCC1=C(C(=O)O)N2C(=O)[C@@H](NC(=O)[C@H](NC(=O)Nc3cnc(NCc4ccco4)nc3O)c3ccc(O)cc3)[C@H]2SC1; 0.5 µg/mL

Can you look up the measured MIC of "Cc1ncc(CNc2ncc(NC(=O)N[C@@H](C(=O)N[C@@H]3C(=O)N4C(C(=O)O)=C(CSc5nnnn5C)CS[C@H]34)c3ccc(O)cc3)c(O)n2)cn1" for me? 0.25 µg/mL

Form field: reported MIC of "Cn1nnnc1SCC1=C(C(=O)O)N2C(=O)[C@@H](NC(=O)[C@H](NC(=O)Nc3cnc(NCc4cccs4)nc3O)c3ccc(O)cc3)[C@H]2SC1" 0.5 µg/mL
